All values here come from patent EP0151996A2.

- target or test system: double-chain plasminogen activator (Homo sapiens, UniProt P00750)
- Construct: endogenous in cells; host or cells: human normal tissue derived cells (e.g. human embryonic kidney or lung cells); secreted protein purified from the culture liquor and converted by enzyme (plasmin) treatment or incubation
- Sequence (P00750 311-562 limits assumed): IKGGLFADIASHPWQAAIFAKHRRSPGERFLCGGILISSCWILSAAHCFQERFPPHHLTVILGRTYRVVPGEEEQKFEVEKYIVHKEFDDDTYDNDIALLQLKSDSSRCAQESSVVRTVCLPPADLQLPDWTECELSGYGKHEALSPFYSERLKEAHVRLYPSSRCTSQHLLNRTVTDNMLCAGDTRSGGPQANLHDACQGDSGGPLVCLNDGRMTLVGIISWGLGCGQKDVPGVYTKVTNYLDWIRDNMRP
- Sequence (P00750 36-310 partner limits assumed): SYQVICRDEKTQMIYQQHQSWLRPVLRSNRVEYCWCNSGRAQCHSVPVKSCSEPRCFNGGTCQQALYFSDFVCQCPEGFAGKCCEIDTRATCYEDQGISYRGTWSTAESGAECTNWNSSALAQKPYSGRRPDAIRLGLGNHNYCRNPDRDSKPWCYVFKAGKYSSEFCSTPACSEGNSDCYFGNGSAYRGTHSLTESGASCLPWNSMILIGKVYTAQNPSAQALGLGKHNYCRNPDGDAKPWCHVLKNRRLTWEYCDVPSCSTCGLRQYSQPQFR
- protocol notes: Influence of proteinase inhibitors on hydrolysis of Boc-Phe-Ser-Arg-MCA, double-chain form
- Assay type: biochemical
recorded metric: IC50 (µM)

[[record]]
given_smiles = "CC(=O)N[C@@H](CC(C)C)C(=O)N[C@@H](CC(C)C)C(=O)N[C@H](C=O)CCCNC(=N)N"
recorded_metric = "IC50"
recorded_value = 570


---

- target or test system: double-chain plasminogen activator (Homo sapiens)
- Construct: endogenous in cells; host or cells: human normal tissue derived cells (e.g. human embryonic kidney or lung cells); secreted protein purified from the culture liquor and converted by enzyme (plasmin) treatment or incubation
- protocol notes: Influence of proteinase inhibitors on hydrolysis of Boc-Phe-Ser-Arg-MCA, double-chain form
- Type: biochemical
- measurement conditions: Double-Chain Structure 100 U/mℓ, substrate Boc-Phe-Ser-Arg-MCA, 37°C 60 minutes; read-out: IC50
recorded metric: IC50 (µM)

[[record]]
compound = "CCOC(=O)c1ccc(OC(=O)CCCCCNC(=N)N)cc1 [FOY]"
recorded_value = 92

